Target: recombinant human AKR1C3 (Homo sapiens, UniProt P42330)
Construct: GST (cleaved yes)
Sequence (P42330 1-323): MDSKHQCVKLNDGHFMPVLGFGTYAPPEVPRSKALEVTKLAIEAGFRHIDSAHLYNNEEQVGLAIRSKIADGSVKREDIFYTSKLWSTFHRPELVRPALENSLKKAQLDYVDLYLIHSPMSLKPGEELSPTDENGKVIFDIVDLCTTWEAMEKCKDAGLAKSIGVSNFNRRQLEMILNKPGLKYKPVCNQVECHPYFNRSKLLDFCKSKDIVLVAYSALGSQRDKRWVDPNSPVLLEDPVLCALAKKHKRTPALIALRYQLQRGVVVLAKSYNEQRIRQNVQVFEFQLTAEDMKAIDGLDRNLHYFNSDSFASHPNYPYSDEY
Assay: AKR1C3-inhibitory activity assay (generation of Coumberol from Coumberone)
Details: Coumberone 0.3 μM, NADPH 10 μM, 22° C., typically 90 min, average or median values
Measured Endpoint: IC50 (nM)

Use these answered entries as a reference point.
Cc1cc(C)cc(S(=O)(=O)N2CCN(C(=O)c3c[nH]nn3)CC2(C)C)c1; 2
C[C@@H]1CN(C(=O)c2cnn[nH]2)[C@@H](C)CN1S(=O)(=O)c1c(F)cccc1F; 2
C[C@@H]1CN(C(=O)c2cnn[nH]2)[C@@H](C)CN1S(=O)(=O)c1ccccc1OC(F)(F)F; 2
C[C@@H]1CN(S(=O)(=O)c2ccc(F)c(Cl)c2)C[C@H](C)N1C(=O)c1cnn[nH]1; 20
C[C@@H]1CN(S(=O)(=O)c2cc(F)ccc2F)C[C@H](C)N1C(=O)c1c[nH]nn1; 4
Cc1cc(C)cc(S(=O)(=O)N2C[C@H](C)N(C(=O)c3cnn[nH]3)C[C@H]2C)c1; 1

[I] CC1(C)CN(C(=O)c2cnn[nH]2)CCN1S(=O)(=O)c1ccccc1[N+](=O)[O-]
[II] CC1(C)CN(C(=O)c2cnn[nH]2)CCN1S(=O)(=O)c1cccc([N+](=O)[O-])c1
(Q) Form field 'greater IC50' accepts I or II ; which applies? API: response body contains the label of the selected item.
(A) II

----------
Biological target: recombinant human AKR1C3 (Homo sapiens)
Construct: GST (cleaved yes)
Assay: AKR1C3-inhibitory activity assay (generation of Coumberol from Coumberone)
Conditions: Coumberone 0.3 μM, NADPH 10 μM, 22° C., typically 90 min, average or median values
Method: The AKR1C3-inhibitory activity of the substances of the present invention was measured in the AKR1C3 assay described in the paragraphs below. Essentially, the enzyme activity is measured by quantification of the generation of Coumberol from Coumberone (Halim et al. J. AM. CHEM. SOC. 2008, 130:14123-14128 and Yee et al. Proc. Natl. Acad. Sci. USA 2006, 103:13304-13309). […]
Measured Endpoint: IC50 (nM)

Use these answered entries as a reference point.
C[C@@H]1CN(C(=O)c2cnn[nH]2)[C@@H](C)CN1S(=O)(=O)c1ccccc1S(C)(=O)=O [Example 84]; 37
CC1(C)CN(C(=O)c2cnn[nH]2)CCN1S(=O)(=O)c1cccc(F)c1Cl [Example 137]; 19
Cc1cccc(S(=O)(=O)N2C[C@@H](C)N(C(=O)c3c[nH]nn3)[C@@H](C)C2)c1 [Example 49]; 6
C[C@@H]1CN(S(=O)(=O)c2cccc(C#N)c2)C[C@H](C)N1C(=O)c1c[nH]nn1 [Example 54]; 118
C[C@@H]1CN(S(=O)(=O)c2cc(F)cc(F)c2)C[C@H](C)N1C(=O)c1c[nH]nn1 [Example 56]; 13
CC1(C)CN(C(=O)c2c[nH]nn2)CCN1S(=O)(=O)c1cc(Cl)ccc1Cl [Example 25]; 7
C[C@@H]1CN(C(=O)c2cnn[nH]2)[C@@H](C)CN1S(=O)(=O)c1ccccc1F [Example 5]; 2
Cc1c(Cl)cccc1S(=O)(=O)N1C[C@@H](C)N(C(=O)c2cnn[nH]2)[C@@H](C)C1 [Example 103]; 2

[A] C[C@@H]1CN(S(=O)(=O)c2ccccc2Cl)C[C@H](C)N1C(=O)c1c[nH]nn1 [Example 46]
[B] C[C@@H]1CN(C(=O)c2cnn[nH]2)[C@@H](C)CN1S(=O)(=O)c1ccc(C#N)cc1 [Example 15]
(Q) Form field 'greater IC50' accepts A or B ; which applies? API: response body contains the label of the selected item.
(A) B

----------
Biological target: recombinant human AKR1C3 (Homo sapiens)
Construct: GST (cleaved yes)
Assay: AKR1C3-inhibitory activity assay (generation of Coumberol from Coumberone)
Settings: Coumberone 0.3 μM, NADPH 10 μM, 22° C., typically 90 min, average or median values
pIC50: −log10 of the molar value.
Measured Endpoint: pIC50

Use these answered entries as a reference point.
Cc1ccccc1S(=O)(=O)N1C[C@H](C)N(C(=O)c2cnn[nH]2)C[C@H]1C; 9.00
C[C@@H]1CN(C(=O)c2cnn[nH]2)[C@@H](C)CN1S(=O)(=O)c1cccc(S(C)(=O)=O)c1; 7.49
CC1(C)CN(C(=O)c2cnn[nH]2)CCN1S(=O)(=O)c1cccc2nonc12; 7.46
C[C@@H]1CN(S(=O)(=O)c2cccc(Br)c2)C[C@H](C)N1C(=O)c1c[nH]nn1; 8.52
C[C@@H]1CN(C(=O)c2cnn[nH]2)[C@@H](C)CN1S(=O)(=O)c1ccc(F)cc1; 8.40

[A] CC1(C)CN(C(=O)c2cnn[nH]2)CCN1S(=O)(=O)c1cccc2c1OCC2
[B] C[C@@H]1CN(C(=O)c2cnn[nH]2)[C@@H](C)CN1S(=O)(=O)c1cc(F)cc(F)c1
(Q) Lower pIC50: A or B ? API: response body contains the label of the selected item.
(A) A

----------
Biological target: recombinant human AKR1C3 (Homo sapiens, UniProt P42330)
Construct: GST (cleaved yes)
Test: AKR1C3-inhibitory activity assay (generation of Coumberol from Coumberone)
Details: Coumberone 0.3 μM, NADPH 10 μM, 22° C., typically 90 min, average or median values
Description: The AKR1C3-inhibitory activity of the substances of the present invention was measured in the AKR1C3 assay described in the paragraphs below. Essentially, the enzyme activity is measured by quantification of the generation of Coumberol from Coumberone (Halim et al. J. AM. CHEM. SOC. 2008, 130:14123-14128 and Yee et al. Proc. Natl. Acad. Sci. USA 2006, 103:13304-13309). […]
Measured Endpoint: IC50 (nM)

Use these answered entries as a reference point.
C[C@@H]1CN(S(=O)(=O)c2ccc(OC(F)(F)F)cc2)C[C@H](C)N1C(=O)c1cnn[nH]1; 399
C[C@@H]1CN(C(=O)c2cnn[nH]2)[C@@H](C)CN1S(=O)(=O)c1cccc(Cl)c1; 1
COc1ccccc1S(=O)(=O)N1CCN(C(=O)c2cnn[nH]2)CC1(C)C; 38
CC1(C)CN(C(=O)c2cnn[nH]2)CCN1S(=O)(=O)c1ccc(F)c(F)c1; 26
C[C@@H]1CN(S(=O)(=O)c2ccccc2)C[C@H](C)N1C(=O)c1c[nH]nn1; 11

[I] C[C@@H]1CN(S(=O)(=O)c2cccc(Cl)c2F)C[C@H](C)N1C(=O)c1c[nH]nn1
[II] C[C@@H]1CN(C(=O)c2cnn[nH]2)[C@@H](C)CN1S(=O)(=O)c1cc(Cl)ccc1Cl
(Q) Form field 'greater IC50' accepts I or II ; which applies? API: response body contains the label of the selected item.
(A) I
(I: 10 nM, II: 2 nM)

[1] Cc1cccc(S(=O)(=O)N2CCN(C(=O)c3cnn[nH]3)CC2(C)C)c1
[2] C[C@@H]1CN(S(=O)(=O)c2cc(Cl)cc(Cl)c2)C[C@H](C)N1C(=O)c1c[nH]nn1
[3] C[C@@H]1CN(C(=O)c2c[nH]nn2)[C@@H](C)CN1S(=O)(=O)c1cccc(C(F)(F)F)c1
(Q) Number of compounds to sort: 3. Sort criterion: IC50, ascending. Write the labels in rank order as requested.
(A) 3, 2, 1
(3: 1 nM, 2: 2 nM, 1: 10 nM)

[I] C[C@@H]1CN(S(=O)(=O)c2ccccc2F)C[C@H](C)N1C(=O)c1c[nH]nn1
[II] COc1ccc(OC)c(S(=O)(=O)N2CCN(C(=O)c3cnn[nH]3)CC2(C)C)c1
(Q) Form field 'greater IC50' accepts I or II ; which applies? API: response body contains the label of the selected item.
(A) II
(II: 208 nM, I: 6 nM)

----------
Target: recombinant human AKR1C3 (Homo sapiens, UniProt P42330)
Construct: GST (cleaved yes)
Sequence (P42330 1-323): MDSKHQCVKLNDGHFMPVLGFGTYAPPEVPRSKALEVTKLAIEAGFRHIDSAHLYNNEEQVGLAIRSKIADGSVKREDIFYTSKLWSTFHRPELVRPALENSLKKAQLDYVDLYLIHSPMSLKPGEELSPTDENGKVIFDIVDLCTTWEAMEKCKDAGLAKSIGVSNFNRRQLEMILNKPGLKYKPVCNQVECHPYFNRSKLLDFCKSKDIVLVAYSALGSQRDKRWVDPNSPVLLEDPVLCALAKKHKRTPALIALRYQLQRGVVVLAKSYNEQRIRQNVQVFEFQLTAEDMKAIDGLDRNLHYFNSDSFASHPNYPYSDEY
Assay: AKR1C3-inhibitory activity assay (generation of Coumberol from Coumberone)
Conditions: Coumberone 0.3 μM, NADPH 10 μM, 22° C., typically 90 min, average or median values
Procedure: The AKR1C3-inhibitory activity of the substances of the present invention was measured in the AKR1C3 assay described in the paragraphs below. Essentially, the enzyme activity is measured by quantification of the generation of Coumberol from Coumberone (Halim et al. J. AM. CHEM. SOC. 2008, 130:14123-14128 and Yee et al. Proc. Natl. Acad. Sci. USA 2006, 103:13304-13309). […]
pIC50: −log10 of the molar value.
Measured Endpoint: pIC50

Use these answered entries as a reference point.
C[C@@H]1CN(C(=O)c2cnn[nH]2)[C@@H](C)CN1S(=O)(=O)c1cccc2cccnc12; 8.15
C[C@@H]1CN(S(=O)(=O)c2ccc(F)cc2)C[C@H](C)N1C(=O)c1c[nH]nn1; 7.32
C[C@@H]1CN(S(=O)(=O)c2cccc3ccccc23)C[C@H](C)N1C(=O)c1cnn[nH]1; 8.70
CC1(C)CN(C(=O)c2cnn[nH]2)CCN1S(=O)(=O)c1ccc(Cl)cc1; 8.30

[1] C[C@@H]1CN(C(=O)c2cnn[nH]2)[C@@H](C)CN1S(=O)(=O)c1ccc(Br)cc1
[2] C[C@@H]1CN(C(=O)c2cnn[nH]2)[C@@H](C)CN1S(=O)(=O)c1ccccc1-c1ccccc1
[3] C[C@@H]1CN(C(=O)c2cnn[nH]2)[C@@H](C)CN1S(=O)(=O)c1ccc(O)cc1
[4] C[C@@H]1CN(C(=O)c2c[nH]nn2)[C@@H](C)CN1S(=O)(=O)c1cccc(S(F)(F)(F)(F)F)c1
(Q) Could you please sort these 4 entries by pIC50 from high to low? Write the labels in rank order as requested.
(A) 4, 1, 3, 2
